experiment: AUC in Beagle dog at 3 mg/kg, po; type: ADME, organism-based, Canis lupus familiaris; parameters: dose 3 mg/kg, route oral; conditions: plasma
readout name: AUC (nM·h)

smiles data | readout name | result number
COCCCc1cc(CN(C(=O)[C@H]2CNCC[C@@H]2c2ccn(C)c(=O)c2)C2CC2)cc(Br)c1C | AUC | 2100

###

test: Oral bioavailability in Sprague-Dawley rat at 20 mg/kg; assay type: ADME, organism-based; details: in vivo
readout name: bioavailability (%)

smiles data | result number
Cn1ccc([C@H]2CCNC[C@@H]2C(=O)N(Cc2cc(CCCC#N)cc(Cl)c2Cl)C2CC2)cc1=O | 7
COCCNc1cc(Cl)c(Cl)c(CN(C(=O)[C@H]2CNCC[C@@H]2c2ccn(C)c(=O)c2)C2CC2)c1 | 1
CC(=O)NCCc1cc(Cl)c(Cl)c(CN(C(=O)[C@H]2CNCC[C@@H]2c2ccn(C)c(=O)c2)C2CC2)c1 | 0
COCCCc1cc(CN(C(=O)[C@H]2CNCC[C@@H]2c2ccn(C)c(=O)c2)C2CC2)cc(-c2ccccc2)c1 | 8
COCCCc1ccc(Cl)c(CN(C(=O)[C@H]2CNCC[C@@H]2c2ccn(C)c(=O)c2)C2CC2)c1 | 14
COCCCc1cc(Br)cc(CN(C(=O)[C@H]2CNCC[C@@H]2c2ccn(C)c(=O)c2)C2CC2)c1 | 15
Cn1ccc([C@H]2CCNC[C@@H]2C(=O)N(Cc2cc(CCC#N)cc(Cl)c2Cl)C2CC2)cc1=O | 8
COCCCc1cc(CN(C(=O)[C@H]2CNCC[C@@H]2c2cc(=O)n(C)c3cc(Cl)ccc23)C2CC2)cc(OCCOC)c1 | 20
COCCCc1cc(Cl)c(Cl)c(CN(C(=O)[C@H]2CNCC[C@@H]2c2ccn(C)c(=O)c2)C2CC2)c1 | 24
Cn1ccc([C@H]2CCNC[C@@H]2C(=O)N(Cc2cccc(Cl)c2Cl)C2CC2)cc1=O | 23
COCCCc1cc(CN(C(=O)[C@H]2CNCC[C@@H]2c2ccc(OCCOc3c(Cl)cc(C)cc3Cl)cc2)C2CC2)cc(OCCOC)c1 | 27
COC(=O)NCCc1cc(Cl)c(Cl)c(CN(C(=O)[C@H]2CNCC[C@@H]2c2ccn(C)c(=O)c2)C2CC2)c1 | 1
COCCCc1cc(CN(C(=O)[C@H]2CNCC[C@@H]2c2ccn(C)c(=O)c2)C2CC2)c2ccccc2c1 | 4

###

biological target: CYP3A4 (Homo sapiens, UniProt P08684); assay: Time dependent inhibition of CYP3A4 assessed as conversion of testosterone to 6-beta-hydroxytestosterone at 10 uM relative to control; format: ADME; conditions: probe testosterone
Sequence (P08684 whole entry): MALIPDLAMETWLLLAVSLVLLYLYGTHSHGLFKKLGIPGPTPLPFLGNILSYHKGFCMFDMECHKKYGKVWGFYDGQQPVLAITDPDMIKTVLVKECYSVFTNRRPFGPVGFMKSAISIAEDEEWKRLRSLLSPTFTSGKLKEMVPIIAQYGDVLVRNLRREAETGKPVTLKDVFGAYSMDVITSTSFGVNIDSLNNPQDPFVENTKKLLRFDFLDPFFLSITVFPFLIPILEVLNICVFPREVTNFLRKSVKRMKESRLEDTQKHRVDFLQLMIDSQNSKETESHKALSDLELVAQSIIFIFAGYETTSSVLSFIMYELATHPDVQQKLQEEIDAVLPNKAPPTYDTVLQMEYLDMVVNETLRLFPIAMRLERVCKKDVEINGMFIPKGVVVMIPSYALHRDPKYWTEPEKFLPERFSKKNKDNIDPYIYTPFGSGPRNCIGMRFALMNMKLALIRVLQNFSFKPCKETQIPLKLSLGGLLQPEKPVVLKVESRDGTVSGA
Note that class boundaries on inhibition at 10 µM are low class (below 5%), middle class (5% to below 40%), high class (40% or more)

smiles data | tested on | category
COCCCc1cc(Cl)c(Cl)c(CN(C(=O)[C@H]2CNCC[C@@H]2c2ccn(C)c(=O)c2)C2CC2)c1 | CYP3A4 (Homo sapiens, UniProt P08684) | middle class
COCCCc1cc(Cl)cc(CN(C(=O)[C@H]2CNCC[C@@H]2c2ccn(C)c(=O)c2)C2CC2)c1 | CYP3A4 (Homo sapiens, UniProt P08684) | low class
Cn1ccc([C@H]2CCNC[C@@H]2C(=O)N(Cc2cn(Cc3ccncc3)c3cccc(F)c23)C2CC2)cc1=O | CYP3A4 (Homo sapiens, UniProt P08684) | middle class
COCCCc1cc(CN(C(=O)[C@H]2CNCC[C@@H]2c2ccn(C)c(=O)c2)C2CC2)cc(Br)c1C | CYP3A4 (Homo sapiens, UniProt P08684) | low class
CC(=O)NCCc1cc(Cl)c(Cl)c(CN(C(=O)[C@H]2CNCC[C@@H]2c2ccn(C)c(=O)c2)C2CC2)c1 | CYP3A4 (Homo sapiens, UniProt P08684) | low class
COCCCn1cc(CN(C(=O)[C@H]2CNCC[C@@H]2c2ccn(C)c(=O)c2)C2CC2)c2c(F)cccc21 | CYP3A4 (Homo sapiens, UniProt P08684) | low class
COCCCn1cc(CN(C(=O)[C@H]2CNCC[C@@H]2c2ccn(C)c(=O)c2)C2CC2)c2c(Cl)cccc21 | CYP3A4 (Homo sapiens, UniProt P08684) | middle class
Cn1ccc([C@H]2CCNC[C@@H]2C(=O)N(Cc2cc(CCC#N)cc(Cl)c2Cl)C2CC2)cc1=O | CYP3A4 (Homo sapiens, UniProt P08684) | middle class
COCCCc1cc(Br)cc(CN(C(=O)[C@H]2CNCC[C@@H]2c2ccn(C)c(=O)c2)C2CC2)c1 | CYP3A4 (Homo sapiens, UniProt P08684) | high class
Cn1ccc([C@H]2CCNC[C@@H]2C(=O)N(Cc2cn(Cc3ccccc3)c3cccc(F)c23)C2CC2)cc1=O | CYP3A4 (Homo sapiens, UniProt P08684) | high class
COCCCn1cc(CN(C(=O)[C@H]2CNCC[C@@H]2c2ccn(C)c(=O)c2)C2CC2)c2c(Br)cccc21 | CYP3A4 (Homo sapiens, UniProt P08684) | high class
Cn1ccc([C@H]2CCNC[C@@H]2C(=O)N(Cc2cn(Cc3cccnc3)c3cccc(F)c23)C2CC2)cc1=O | CYP3A4 (Homo sapiens, UniProt P08684) | high class
Cn1ccc([C@H]2CCNC[C@@H]2C(=O)N(Cc2cn(Cc3ccc(F)cc3)c3cccc(F)c23)C2CC2)cc1=O | CYP3A4 (Homo sapiens, UniProt P08684) | high class
